# key: entry, value: pIC50
- target desc: human Werner helicase (WRN-BV08, Uniprot Q14191, amino acids 517-1235 with L1074F point mutation) (Homo sapiens, UniProt Q14191, L1074F)
- Construct: Uniprot Q14191, amino acids 517-1235 with L1074F point mutation; TEV-cleavable 8×His (C, cleaved yes); made in house; host or cells: Sf9 insect cells (baculovirus)
- Sequence (Q14191 with tags, fused parts or gaps L1074F limits assumed): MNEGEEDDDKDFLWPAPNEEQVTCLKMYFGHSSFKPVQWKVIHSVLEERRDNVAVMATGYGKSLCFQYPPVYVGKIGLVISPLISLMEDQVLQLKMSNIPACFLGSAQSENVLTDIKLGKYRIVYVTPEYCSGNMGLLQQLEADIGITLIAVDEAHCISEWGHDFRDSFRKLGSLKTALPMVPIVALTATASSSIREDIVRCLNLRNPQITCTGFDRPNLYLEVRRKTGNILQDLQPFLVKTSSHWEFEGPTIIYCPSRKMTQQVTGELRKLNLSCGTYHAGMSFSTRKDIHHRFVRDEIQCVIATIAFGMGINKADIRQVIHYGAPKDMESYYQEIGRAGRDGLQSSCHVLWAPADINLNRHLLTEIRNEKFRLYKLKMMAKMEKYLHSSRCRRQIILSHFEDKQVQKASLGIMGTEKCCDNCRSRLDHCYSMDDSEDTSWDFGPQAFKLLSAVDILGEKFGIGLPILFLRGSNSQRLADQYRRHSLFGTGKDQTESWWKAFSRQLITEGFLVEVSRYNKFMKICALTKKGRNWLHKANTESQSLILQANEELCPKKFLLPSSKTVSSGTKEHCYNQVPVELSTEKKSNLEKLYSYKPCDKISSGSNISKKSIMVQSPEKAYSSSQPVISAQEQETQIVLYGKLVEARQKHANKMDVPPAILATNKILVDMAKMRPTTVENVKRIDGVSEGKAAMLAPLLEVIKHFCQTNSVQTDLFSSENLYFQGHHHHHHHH
- measurement notes: WRN (BV08) ADP-Glo Assay
- Format: biochemical
- protocol conditions: 0.15 nM WRN, 5 μM ATP, 0.1 nM DNA duplex, 15 min preincubation, 60 min at 25° C., pH 7.5, 1% DMSO; read-out: ADP-Glo_hWRN_IC50
pIC50: −log10 of the molar value.

Use these answered entries as a reference point.
| molecule | pIC50 |
| --- | --- |
| CN(C)C(=O)C(C(=O)N(Cc1ccncc1)C1C=CS(=O)(=O)C1)c1ccc(-c2ccc(F)cc2)cc1 (single isomer, unassigned) [I-362] | < 4.30 |
| Cc1sc(CN(C(=O)Cc2ccc(-c3ccc(F)c(F)c3)cc2F)C2C=CS(=O)(=O)C2)nc1C1CC1 (stereo not shown) | 5.30 to 6.30 |
| COc1cc(CN(C(=O)C(c2ccc(-c3ccc(F)c(F)c3)cc2F)n2ccc(C)n2)[C@@H]2C=CS(=O)(=O)C2)ccn1 (single isomer, unassigned) [I-750] | > 6.30 |
| O=C(Cc1ccc(Oc2ccccc2)cc1)N(Cc1ccncc1)C1C=CS(=O)(=O)C1 (stereo not shown) | < 4.30 |
| CNC(=O)c1ccc(CN(C(=O)Cc2ccc(-n3cccc3)cc2)C2C=CS(=O)(=O)C2)cc1 (stereo not shown) | 5.00 to 5.30 |

pIC50 lookup needed for CC(=O)N1CCN(C(=O)C(C(=O)N(Cc2ccncc2)C2C=CS(=O)(=O)C2)c2ccc(-c3ccc(F)cc3)cc2)CC1 (stereo not shown) , thanks.
5.30 to 6.30

pIC50 lookup needed for CC(O)(c1cc(CN(C(=O)Cn2cc(-c3cc(F)c(F)c(F)c3)cn2)C2C=CS(=O)(=O)C2)ccn1)C(F)F (stereo not shown) , thanks.
> 6.30

====

- target desc: human Werner helicase (WRN-BV08, Uniprot Q14191, amino acids 517-1235 with L1074F point mutation) (Homo sapiens, UniProt Q14191, L1074F)
- Construct: Uniprot Q14191, amino acids 517-1235 with L1074F point mutation; TEV-cleavable 8×His (C, cleaved yes); made in house; host or cells: Sf9 insect cells (baculovirus)
- measurement notes: WRN (BV08) ADP-Glo Assay
- Format: biochemical
- protocol conditions: 0.15 nM WRN, 5 μM ATP, 0.1 nM DNA duplex, 15 min preincubation, 60 min at 25° C., pH 7.5, 1% DMSO; read-out: ADP-Glo_hWRN_IC50
pIC50: −log10 of the molar value.
# key: entry, value: pIC50

| compound | pIC50 |
| --- | --- |
| O=C(Cn1nc(-c2ccccc2)ccc1=O)N(Cc1ccncc1)C1C=CS(=O)(=O)C1 (centres unmarked) | 4.30 to 5.00 |
| O=C(Cn1nnc2ccccc21)N(Cc1ccncc1)C1C=CS(=O)(=O)C1 (centres unmarked) | < 4.30 |
| O=C([C@@H]1[C@H]2C[C@]1(c1cccc(F)c1)CO2)N(Cc1ccncc1)C1C=CS(=O)(=O)C1 (mixture of isomers) | < 4.30 |
| O=C(Cn1cc(-c2ccc(F)c(F)c2)cn1)N(Cc1nc([C@@H]2C[C@H]2F)cs1)C1C=CS(=O)(=O)C1 (some centres unmarked) | > 6.30 |

pIC50 lookup needed for COc1cc(CN(C(=O)C(C)c2ccc(-n3cccc3)cc2)C2C=CS(=O)(=O)C2)ccn1 (centres unmarked) , thanks.
5.30 to 6.30

pIC50 lookup needed for COC(C(=O)N(Cc1ccnc(C(C)(C)O)c1)C1C=CS(=O)(=O)C1)c1ccc(-c2ccc(F)cc2)cc1F (single isomer, unassigned) [I-199] , thanks.
5.30 to 6.30

pIC50 lookup needed for O=C(Cc1ccc(-c2nnco2)cc1)N(Cc1ccncc1)C1C=CS(=O)(=O)C1 (centres unmarked) , thanks.
< 4.30

pIC50 lookup needed for O=C(Cc1ccc(-n2cccc2)cc1)N(Cc1ccc(O)cc1)C1C=CS(=O)(=O)C1 (centres unmarked) , thanks.
4.30 to 5.00

====

# key: entry, value: pIC50
- target desc: human Werner helicase (WRN-BV08, Uniprot Q14191, amino acids 517-1235 with L1074F point mutation) (Homo sapiens, UniProt Q14191, L1074F)
- Construct: Uniprot Q14191, amino acids 517-1235 with L1074F point mutation; TEV-cleavable 8×His (C, cleaved yes); made in house; host or cells: Sf9 insect cells (baculovirus)
- measurement notes: WRN (BV08) ADP-Glo Assay
- Assay type: biochemical
- protocol conditions: 0.15 nM WRN, 5 μM ATP, 0.1 nM DNA duplex, 15 min preincubation, 60 min at 25° C., pH 7.5, 1% DMSO; read-out: ADP-Glo_hWRN_IC50
pIC50: −log10 of the molar value.

Use these answered entries as a reference point.
| compound | pIC50 |
| --- | --- |
| O=C(Cc1ccc(-n2cccc2)cc1)N(Cc1ccncc1)C1C=CS(=O)(=O)C1 (centres unmarked) [I-239] | 5.00 to 5.30 |
| COc1cc(CN(C(=O)Cc2ccc(S(F)(F)(F)(F)F)cc2F)C2C=CS(=O)(=O)C2)ccn1 (centres unmarked) [I-22] | > 6.30 |
| COc1cc(CN(C(=O)Cc2ccc(-c3ccc(F)c(F)c3)cc2F)C2C=CS(=O)(=O)C2)ccn1 (single isomer, unassigned) [I-35] | > 6.30 |

pIC50 lookup needed for COc1ccccc1CN(C(=O)Cc1ccc(-n2cccc2)cc1)C1C=CS(=O)(=O)C1 (centres unmarked) [I-524] , thanks.
< 4.30

pIC50 lookup needed for COc1cc(CN(C(=O)Cn2cc(-c3ccccc3F)cn2)C2C=CS(=O)(=O)C2)ccn1 (centres unmarked) [I-134] , thanks.
5.30 to 6.30

====

- target desc: human Werner helicase (WRN-BV08, Uniprot Q14191, amino acids 517-1235 with L1074F point mutation) (Homo sapiens, UniProt Q14191, L1074F)
- Construct: Uniprot Q14191, amino acids 517-1235 with L1074F point mutation; TEV-cleavable 8×His (C, cleaved yes); made in house; host or cells: Sf9 insect cells (baculovirus)
- measurement notes: WRN (BV08) ADP-Glo Assay
- Assay type: biochemical
- protocol conditions: 0.15 nM WRN, 5 μM ATP, 0.1 nM DNA duplex, 15 min preincubation, 60 min at 25° C., pH 7.5, 1% DMSO; read-out: ADP-Glo_hWRN_IC50
- Text: Example 2: WRN (BV08) ADP-Glo Assay Protocol Bovine skin gelatin (BSG), dimethyl sulfoxide (DMSO), Pluronic F-127 and Tris(2-carboxyethyl)phosphine hydrochloride solution (TCEP) were purchased from Sigma-Aldrich at the highest level of purity possible. […] The reaction was stopped by the addition of the ADP-Glo Kit components (Promega) as directed and the relative luminescence units (RLU) were read on an Envision 2104 (Perkin Elmer). […]
reported property: IC50

Use these answered entries as a reference point.
| compound | observed |
| --- | --- |
| COc1cc(CN(C(=O)C(OC2COC2)c2ccc(-c3ccc(F)c(F)c3)cc2F)[C@@H]2C=CS(=O)(=O)C2)ccn1 (some centres unmarked) [I-752] | 5 to 10 µM |
| O=C(Cc1ccc(-n2cccc2)cc1)N(Cc1cccc2nccnc12)C1C=CS(=O)(=O)C1 (centres unmarked) [I-316] | 10 to 50 µM |
| COc1cc(CN(C(=O)Cc2ccc(-n3cccc3C)cc2F)C2C=CS(=O)(=O)C2)nc(OC)c1 (centres unmarked) [I-202] | 0.5 to 5 µM |
| O=C(Cc1ccc(-n2cccc2)cc1)N(Cc1cccc(B(O)O)c1)C1C=CS(=O)(=O)C1 (centres unmarked) [I-314] | 10 to 50 µM |

IC50 lookup needed for O=C(Cc1ccc(-n2cccc2)cc1)N(Cc1cccnc1)C1C=CS(=O)(=O)C1 (centres unmarked) [I-358] , thanks.
10 to 50 µM

IC50 lookup needed for O=C(Cc1ccc(-n2cccc2)cc1)N(Cc1c(F)cccc1F)C1C=CS(=O)(=O)C1 (centres unmarked) [I-294] , thanks.
10 to 50 µM

IC50 lookup needed for CC(C)(O)c1cc(CN(C(=O)Cc2ccc(-c3ccc(F)c(F)c3)cc2F)C2C=CS(=O)(=O)C2)ccn1 (single isomer, unassigned) [I-11] , thanks.
< 0.5 µM

IC50 lookup needed for COc1cc(CN(C(=O)Cc2ccc(-n3cccc3)cc2F)C2C=CS(=O)(=O)C2)ccn1 (centres unmarked) [I-95] , thanks.
0.5 to 5 µM

====

- target desc: human Werner helicase (WRN-BV08, Uniprot Q14191, amino acids 517-1235 with L1074F point mutation) (Homo sapiens, UniProt Q14191, L1074F)
- Construct: Uniprot Q14191, amino acids 517-1235 with L1074F point mutation; TEV-cleavable 8×His (C, cleaved yes); made in house; host or cells: Sf9 insect cells (baculovirus)
- measurement notes: WRN (BV08) ADP-Glo Assay
- Type: biochemical
- protocol conditions: 0.15 nM WRN, 5 μM ATP, 0.1 nM DNA duplex, 15 min preincubation, 60 min at 25° C., pH 7.5, 1% DMSO; read-out: ADP-Glo_hWRN_IC50
# key: entry, value: IC50

Use these answered entries as a reference point.
| compound | IC50 |
| --- | --- |
| O=C(Cc1ccc(-n2cccc2CCO)cc1)N(Cc1ccccc1)C1C=CS(=O)(=O)C1 (centres unmarked) [I-383] | > 50 µM |
| Cc1nc2cc(CC(=O)N(Cc3ccncc3)C3C=CS(=O)(=O)C3)ccc2o1 (centres unmarked) [I-610] | > 50 µM |
| COc1cc(CN(C(=O)Cn2cc(-c3cc(F)c(F)c(F)c3)cn2)[C@@H]2C=CS(=O)(=O)C2)ccn1 [I-764] | < 0.5 µM |
| COCc1cc(-c2ccc(F)cc2)ccc1CC(=O)N(Cc1ccncc1)C1C=CS(=O)(=O)C1 (centres unmarked) [I-376] | > 50 µM |

IC50 lookup needed for O=C(Cc1cc(-c2ccccc2)n[nH]1)N(Cc1ccncc1)C1C=CS(=O)(=O)C1 (centres unmarked) [I-289] , thanks.
10 to 50 µM

IC50 lookup needed for CS(=O)(=O)N1CCN(C(C(=O)N(Cc2ccncc2)C2C=CS(=O)(=O)C2)c2ccc(-n3cccc3)cc2)CC1 (centres unmarked) [I-554] , thanks.
> 50 µM

IC50 lookup needed for O=C(C1CCc2cc(-n3cccc3)ccc21)N(Cc1ccncc1)C1C=CS(=O)(=O)C1 (centres unmarked) [I-477] , thanks.
> 50 µM

IC50 lookup needed for COc1cc(CN(C(=O)Cc2ccc(-c3ccc(F)cc3)cc2Cl)C2C=CS(=O)(=O)C2)ccn1 (centres unmarked) [I-136] , thanks.
0.5 to 5 µM

These entries and their values trace back to patent US20260297070A1.
